- Experimental target: MMP-13 (Homo sapiens)
- Construct: made in house; host or cells: baculovirus / insect cells
- Assay explanation: biochemical
- Reported conditions: recombinant human MMP-13, MCA peptide substrate 4 μM, pH 7.5, room temperature; read-out: MMP-13 IC50
pIC50: −log10 of the molar value. Where a name gives a salt, the structure may show the parent alone.
Everything with pIC50 lower than 8 is False; everything else, including exactly 8, is True.

Answer whether pIC50 of `CSc1nccc(N2CCC(C(=O)NO)(S(=O)(=O)c3ccc(Oc4ccc(OC(F)(F)F)cc4)cc3)CC2)n1` is greater than or equal to 8.
True

Answer whether pIC50 of `O=C(CCCCNCCO)N1CCC(C(=O)NO)(S(=O)(=O)c2ccc(Oc3ccc(C(F)(F)F)cc3)cc2)CC1` is greater than or equal to 8.
True

Answer whether pIC50 of `O=C(CNCc1ccncc1)N1CCC(C(=O)NO)(S(=O)(=O)c2ccc(Oc3ccc(C(F)(F)F)cc3)cc2)CC1` is greater than or equal to 8.
True

Answer whether pIC50 of `O=C(NO)C1(S(=O)(=O)c2ccc(N3CCC(OCc4ccccn4)CC3)cc2)CCOCC1` is greater than or equal to 8.
False

Answer whether pIC50 of `CCOc1ccc(C(=O)C2CCN(c3ccc(S(=O)(=O)C4(C(=O)NO)CCN(C5CC5)CC4)cc3)CC2)cc1` is greater than or equal to 8.
True

Answer whether pIC50 of COCCN1CCC(C(=O)NO)(S(=O)(=O)c2ccc(Oc3ccc(-n4cncn4)cc3)cc2)CC1 [Example 262, Trihydrochloride] is greater than or equal to 8.
True

Answer whether pIC50 of `O=C(NO)C1(S(=O)(=O)c2ccc(N3CCC(CCOCc4ccccc4)CC3)cc2)CCOCC1` is greater than or equal to 8.
True

Answer whether pIC50 of `CN1CCN(CCCCC(=O)N2CCC(C(=O)NO)(S(=O)(=O)c3ccc(Oc4ccc(C(F)(F)F)cc4)cc3)CC2)CC1` is greater than or equal to 8.
True

Answer whether pIC50 of `O=C(NO)C1(S(=O)(=O)c2ccc(N3CCC(SC4CCCCC4)CC3)cc2)CCOCC1` is greater than or equal to 8.
True

Answer whether pIC50 of `O=C(NO)C1(S(=O)(=O)c2ccc(N3CC=C(c4ccccc4C(F)(F)F)CC3)cc2)CCOCC1` is greater than or equal to 8.
False

Answer whether pIC50 of `O=C(CN1CCNCC1)N1CCC(C(=O)NO)(S(=O)(=O)c2ccc(Oc3ccc(C(F)(F)F)cc3)cc2)CC1` is greater than or equal to 8.
True

Answer whether pIC50 of `C[C@@H]1C[C@H](C)CN(C(=O)C2CCN(c3ccc(S(=O)(=O)C4(C(=O)NO)CCN(C(=O)CCl)CC4)cc3)CC2)C1` is greater than or equal to 8.
False

Answer whether pIC50 of `O=C(NO)C1(S(=O)(=O)c2ccc(N3CCC(OCc4ccc(Br)cc4)CC3)cc2)CCOCC1` is greater than or equal to 8.
True

Answer whether pIC50 of `O=C(NO)C1(S(=O)(=O)c2ccc(N3CCC(n4cnc5ccccc54)CC3)cc2)CCOCC1` is greater than or equal to 8.
False

Answer whether pIC50 of CCCN(CC(=O)N1CCC(C(=O)NO)(S(=O)(=O)c2ccc(N3CCC(C(=O)N4CC(C)CC(C)C4)CC3)cc2)CC1)CC1CC1 (stereo not shown) is greater than or equal to 8.
False

Answer whether pIC50 of `CC(C)N1CCC(C(=O)NO)(S(=O)(=O)c2ccc(Oc3ccc(OC(F)(F)F)cc3)cc2)CC1` is greater than or equal to 8.
True

Answer whether pIC50 of `O=C(NO)C1(S(=O)(=O)c2ccc(Oc3ccc(OC(F)(F)F)cc3)cc2)CCN(C(=S)Nc2cccnc2)CC1` is greater than or equal to 8.
True
